Assay: PK properties in rats
Assay type: in vivo
Settings: rat, in vivo, 5 mg/kg, suspension (CMC/Tween)
endpoint: Cmax (µg/mL)
Enter your answer as a number in µg/mL; do not include the unit.

Prompt: What Cmax value was documented for this compound, `O=C(O)[C@H](CC1CC1)NC(=O)C1(c2ccc(C(F)(F)F)cc2)CCN(c2cc(Cl)cc3cccnc23)CC1` ?
Completion: 1.36

###

Biological target: PICK1 (Homo sapiens, UniProt Q9NRD5)
Sequence (Q9NRD5 1-356): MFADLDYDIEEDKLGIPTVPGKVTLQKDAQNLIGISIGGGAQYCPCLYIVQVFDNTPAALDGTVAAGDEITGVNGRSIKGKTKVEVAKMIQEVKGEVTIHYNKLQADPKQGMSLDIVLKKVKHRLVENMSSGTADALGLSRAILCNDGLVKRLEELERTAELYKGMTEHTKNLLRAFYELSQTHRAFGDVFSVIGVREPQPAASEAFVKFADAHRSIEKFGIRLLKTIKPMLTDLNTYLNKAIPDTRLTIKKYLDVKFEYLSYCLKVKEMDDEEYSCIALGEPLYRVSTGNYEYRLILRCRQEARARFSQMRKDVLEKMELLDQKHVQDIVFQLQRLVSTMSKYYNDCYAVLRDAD
Test: PICK1 competition (displacement) assay with tracer BIO424;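 also: in vitro displacement assay with baculovirus-expressed, truncated dimeric PICK1 missing its final 59 residues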
Settings: IC50 (potency)
// reported IC50 per item
Enter your answer as a number in nM; do not include the unit.

Prompt: What IC50 value was documented for this molecule, `CC(C)(C)OC(=O)N1CCC[C@H]1C(=O)N1CCC(C(=O)N[C@@H](CC2CC2)C(=O)O)(c2ccc(C(F)(F)F)cc2)CC1` ?
Completion: 130

Pending molecule:
Prompt: What IC50 value was documented for this molecule, `O=C(O)[C@H](CC1CC1)NC(=O)C1(c2ccc(C(F)(F)F)cc2)CCN(c2cc(Cl)cc3cccnc23)CC1` ?
Completion: 69
